Provenance of the data: PubChem BioAssay (NCATS)

# Experiment Description: qHTS for H2AX Agonists against the NCATS CANVASS Library (AID 1347378);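 note: phospho-H2AX S139 level in CHO-K1 lysates by TR-FRET emission ratio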
# Stated Conditions: CHO-K1 H2AX phosphorylation, HTRF TR-FRET, 3 h; series mostly up to 76.9 µM
Records with an inconclusive call do not appear. Activity calls are given as the source filed them. Calls come from the whole dose curve; as a rule, active = well fitted activation curve with a large enough effect; inconclusive = small, poorly fitted or top-dose-only effect; inactive = flat fitted curve, though single readings scatter.
Response enum: Y for active, N for inactive

// known answers, use as guide
1. COc1ccc(CCCc2cc(O)c(OC)c(O)c2)c(O)c1O | N
2. C=C1C(=O)O[C@H]2[C@H]1CC/C(CO)=C\CC[C@@]1(C)O[C@@H]21 | Y
3. CC1(C)C=Cc2c(ccc3c2OC[C@@H](c2ccc(O)cc2O)C3)O1 | N
4. C[C@@H]1O[C@@H](O[C@@H]2[C@@H](O)[C@H](O[C@@H]3[C@@H](O)[C@@H](O)C(O[C@H]4[C@H](OC(=O)[C@]56CCC(C)(C)C[C@H]5C5=CCC7[C@@]8(C)C[C@H](O)[C@H](O[C@@H]9C[C@H](CO)[C@@H](O)[C@H](O)[C@H]9O)[C@@](C)(CO)C8[C@H](O)C[C@@]7(C)[C@]5(C)CC6)OC[C@H](O)[C@@H]4O)O[C@H]3C)OC[C@H]2O)[C@H](O)[C@H](O)[C@H]1O (some centres not stated) | N
5. CC[C@@H]1C[C@@]2(CC)OC(=O)[C@@]3(CC)OC(=O)[C@@H]1[C@@H]23 | N

query: Hey, what did the test say about Oc1ccc(/C=C2/c3cc(O)cc(O)c3C(c3ccc(O)cc3)[C@H]2c2cc(O)cc(O)c2)cc1 (some centres not stated) ?
result: N

query: Hey, what did the test say about `C[C@@H]1C(=O)[C@]23CC[C@H]1C[C@]21O[C@H]2C(C)(C)C=CC(=O)[C@@]23COC1=O` ?
result: N

---

# Experiment Description: qHTS for differential inhibitors of proliferation of Plasmodium falciparum line Dd2 (AID 1882); note: nearly all actives have a fitted effect of over 65% in size
# Stated Conditions: Plasmodium falciparum Dd2 proliferation inhibition; series mostly up to 28.7 µM
Results filed as inconclusive are left out. Active and inactive are the calls of the source. The call rests on the fitted dose curve; in most records, active means well fitted inhibition curve with a large enough effect; inconclusive means small, poorly fitted or top-dose-only effect; inactive means flat fitted curve, though single readings scatter.
Response enum: active, inactive

1. N#C/C(=C\c1ccc(O)c(O)c1)C(=O)Nc1ccccc1 | active
2. NC(CCC(=O)NCS(=O)(=O)O)C(=O)O (stereo not drawn) | inactive
3. O=C(O)c1cc(=O)c2ccc(Cl)cc2[nH]1 | inactive
4. NCCCCCCNS(=O)(=O)c1cccc2c(Cl)cccc12 | inactive
5. CCCCCCCCCCCCC/C=C/[C@@H](O)[C@@H](N)CO | inactive
6. Cc1cccc(/C=C/c2ccccc2)n1 | inactive
7. NCCNS(=O)(=O)c1cccc2cnccc12 | inactive
8. S=C(Nc1ccccc1)Nc1nccs1 | active

query: Hey, what did the test say about `COc1[nH]c2ccc(F)cc2c1C(=O)OCC1CCN(CCNS(C)(=O)=O)CC1` ?
result: inactive

query: Hey, what did the test say about `CN(C)CCCCSC(=N)N` ?
result: inactive

query: Hey, what did the test say about `CC(N)=NCc1cccc(CN)c1` ?
result: inactive

query: Hey, what did the test say about `Cn1cnc2c(NC3CCCC3)ncnc21` ?
result: inactive

query: Hey, what did the test say about `CCCn1c(=O)c2[nH]c(-c3ccc(OCC(=O)Nc4ccc(C#N)cc4)cc3)nc2n(CCC)c1=O` ?
result: inactive

---

# Measured Target: Luciferin 4-monooxygenase (Photinus pyralis)
# Experiment Description: Firefly luciferase counterscreen qHTS: Assay Interference Panel against the NCATS CANVASS Library (AID 1347363)
# Stated Conditions: purified firefly luciferase, luminescence inhibition, 5 min; series mostly up to 57.5 µM
Activity calls are given as the source filed them. Calls follow the shape of the dose curve; as a rule, active = well fitted curve in the direction sought with a large enough effect; inconclusive = small, poorly fitted or top-dose-only effect, or another doubt; inactive = no such curve, though single readings can be large or run the other way.
Recorded Metric: outcome

1) C=C1C[C@@]23C=CC(=O)[C@@](C)(CCC(=O)Nc4c(O)ccc(C(=O)O)c4O)C2C[C@@H]1CC3O (stereo partly drawn) | inactive
2) CO[C@@H]1[C@H](O)[C@@H](C)O[C@@H](OC[C@H]2/C=C/C=C/C(=O)C(C)C[C@H](C)C(O[C@@H]3O[C@H](C)CC4(OC(=O)O[C@@H]4C)C3O)[C@@H](C)/C=C/C(=O)OC2C)[C@@H]1OC (stereo partly drawn) | inactive
3) C=C1/C=C\C(CCC)=C\c2csc(n2)C(C)NC(=O)C[C@@]2(CC(=O)O)CCC(=C)[C@H](C1)S2 (stereo partly drawn) | inactive

---

# Measured Target: Luciferin 4-monooxygenase (Photinus pyralis) (UniProt P08659)
# Sequence (P08659 whole entry, looked up): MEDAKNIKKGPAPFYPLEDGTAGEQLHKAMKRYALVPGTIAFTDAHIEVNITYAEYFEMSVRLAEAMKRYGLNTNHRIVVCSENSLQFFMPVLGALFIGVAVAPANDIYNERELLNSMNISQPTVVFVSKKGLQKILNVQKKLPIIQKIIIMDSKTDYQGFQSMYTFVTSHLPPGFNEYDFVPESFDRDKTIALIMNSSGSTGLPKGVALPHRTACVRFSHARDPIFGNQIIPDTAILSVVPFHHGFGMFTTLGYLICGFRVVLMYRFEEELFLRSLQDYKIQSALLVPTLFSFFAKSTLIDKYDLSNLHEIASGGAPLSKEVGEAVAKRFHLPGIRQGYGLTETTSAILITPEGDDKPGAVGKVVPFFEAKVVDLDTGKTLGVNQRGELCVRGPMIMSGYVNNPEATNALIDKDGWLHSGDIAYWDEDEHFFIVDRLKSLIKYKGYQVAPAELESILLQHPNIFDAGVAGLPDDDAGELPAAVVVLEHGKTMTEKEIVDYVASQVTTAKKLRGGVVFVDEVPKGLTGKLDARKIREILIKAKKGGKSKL
# Experiment Description: Primary firefly luciferase (FLuc) qHTS assay for identification of artifact compounds. (AID 1845220); note: nearly all actives have a fitted effect of over 60% in size
# Stated Conditions: purified firefly luciferase, luminescence, 5 min; series mostly up to 54.1 µM
Calls of active or inactive are those of the source. Calls follow the shape of the dose curve; as a rule, active = well fitted inhibition curve with a large enough effect; inconclusive = small, poorly fitted or top-dose-only effect; inactive = flat fitted curve, though single readings scatter.
Response enum: T = active, F = inactive

// known answers, use as guide
1. c1ccc(-c2cnc(Nc3ccc(OCCN4CCCC4)cc3)s2)cc1 | T
2. COc1cc2nc(N3CCN(C)CC3)nc(NC3CCN(Cc4ccccc4)CC3)c2cc1OC | F
3. CCC(=O)c1cc(-c2ccc(Cl)cc2)n(-c2ccc(S(N)(=O)=O)cc2)c1C | F
4. CC1(CO)CCCC2(C)C1C(OC(=O)c1ccccc1)C=C1C(=O)OCC12O (stereo not given) | F
5. COc1ccc(Cl)cc1[C@@]1(F)C(=O)Nc2cc(C(F)(F)F)ccc21 | F
6. O=C(c1ccc(F)c(F)c1Nc1ccc(I)cc1F)N1CC(O)(C2CCCCN2)C1 (stereo not given) | F
7. Clc1ccccc1CNCC1CCC(CNCc2ccccc2Cl)CC1 (stereo not given) | F
8. Cc1cc2nc(NCCCO)n(CC(=O)c3cc(C(C)(C)C)c(O)c(C(C)(C)C)c3)c2cc1C | F

query: Hey, what did the test say about `COc1cc(-c2cc(-c3ccc(N4CCNCC4)cc3)cnc2C)cc(OC)c1OC` ?
result: F

query: Hey, what did the test say about C=C(C(=O)O)C1CC2=C(C)C(=O)CC2C(C)CC1O (stereo not given) ?
result: F

---

# Measured Target: Muscarinic acetylcholine receptor M1 (Rattus norvegicus)
# Experiment Description: qHTS Assay for Antagonists of Acetylcholine Muscarinic M1 Receptor: Kinetic Measurement of Intracellular Calcium Response (AID 943); note: nearly all actives have a fitted effect of over 75% in size
# Stated Conditions: M1-expressing cells, kinetic intracellular calcium fluorescence; series mostly up to 35.3 µM
# Protocol: NIH Molecular Libraries Screening Centers Network [MLSCN] NIH Chemical Genomics Center [NCGC] Acetylcholine muscarinic M1 receptor is a G-protein coupled receptor (GPCR) coupling to the Gq G protein. […] The increase of intracellular calcium can be measured by the fluorescent calcium dyes, Fluo-3 and Fluo-4, using a fluorescence kinetic plate reader. […] #- read the assay plate 6 times at 1 Hz for basal signal […] #- continuously read the assay plate for 4 min at 1 Hz […]
Records with an inconclusive call do not appear. The source made the active and inactive calls. Calls come from the whole dose curve; as a rule, active = well fitted inhibition curve with a large enough effect; inconclusive = small, poorly fitted or top-dose-only effect; inactive = no such curve, though single readings can be large or run the other way.
Response enum: active, inactive

// known answers, use as guide
1. CCCCCCCCCCCCCCCC(=O)O[C@H](CC(=O)O)C[N+](C)(C)C | active
2. C[C@@](N)(C(=O)O)c1ccc(C(=O)O)cc1 | inactive
3. N[C@H](CCC(=O)N[C@H](CSN=O)C(=O)NCC(=O)O)C(=O)O | inactive
4. N#CC(=C(/N)Sc1ccccc1N)/C(C#N)=C(/N)Sc1ccccc1N | inactive
5. N[C@]1(C(=O)O)CCc2cc(C(=O)O)ccc21 | inactive

query: Hey, what did the test say about `C=C[C@H](N)CCC(=O)O` ?
result: inactive

query: Hey, what did the test say about `C[C@@H]1CNCCN1S(=O)(=O)c1cccc2cnccc12` ?
result: inactive

query: Hey, what did the test say about `CCCCCCCCCCCCC/C=C\[C@@H](O)[C@@H](N)CO` ?
result: inactive

query: Hey, what did the test say about `COc1ccccc1NC(=O)Nc1nc(-c2cccnc2)nc2ccccc12` ?
result: inactive

query: Hey, what did the test say about `C[C@H](N=C(NC#N)Nc1ccncc1)C(C)(C)C` ?
result: inactive

query: Hey, what did the test say about `NS(=O)(=O)c1cc2c(cc1Cl)N[C@@H]([C@@H]1C[C@@H]3C=C[C@H]1C3)NS2(=O)=O` ?
result: inactive

---

# Measured Target: Alpha-galactosidase A (Homo sapiens) (UniProt P06280)
# Sequence (P06280 whole entry, looked up): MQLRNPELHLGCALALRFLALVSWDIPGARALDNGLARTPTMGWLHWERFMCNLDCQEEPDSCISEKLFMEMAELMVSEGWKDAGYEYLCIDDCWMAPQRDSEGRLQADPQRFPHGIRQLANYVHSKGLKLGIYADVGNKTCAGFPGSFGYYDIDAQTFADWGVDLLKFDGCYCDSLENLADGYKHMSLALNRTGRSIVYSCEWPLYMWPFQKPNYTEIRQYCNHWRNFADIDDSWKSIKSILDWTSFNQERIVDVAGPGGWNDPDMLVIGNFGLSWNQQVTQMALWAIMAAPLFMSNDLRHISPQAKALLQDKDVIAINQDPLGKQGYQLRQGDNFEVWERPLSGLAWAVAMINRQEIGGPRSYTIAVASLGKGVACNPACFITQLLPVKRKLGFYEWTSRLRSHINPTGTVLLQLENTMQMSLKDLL
# Experiment Description: Counterscreen for Glucocerebrosidase Inhibitors: qHTS Assay for Human alpha-Galactosidase at pH 4.5 (AID 992)
# Stated Conditions: purified enzyme, fluorogenic substrate; series mostly up to 76.9 µM
# Source text: NIH Chemical Genomics Center [NCGC] NIH Molecular Libraries Screening Centers Network [MLSCN] PI Name: Zheng, Wei [NIH] […] This is a fluorogenic enzyme assay with 4-Methylumbelliferyl alpha-D-galactopyranoside as the substrate and human […] as the enzyme preparation. […] 4-Methyllumbelliferone, can be excited at 365 nm and emits at 440 nm which can be detected by a standard fluorescence plate reader. […]
Calls of active or inactive are those of the source. Calls follow the shape of the dose curve; as a rule, active = well fitted curve in the direction sought with a large enough effect; inactive = no such curve, though single readings can be large or run the other way.
Recorded Metric: outcome

Illustrative cases are given below, each with its answer.
1) CN1CCN(CCC=C2c3ccccc3Sc3ccc(S(=O)(=O)N(C)C)cc32)CC1 | inactive
2) NCCCCCCNS(=O)(=O)c1cccc2c(Cl)cccc12 | inactive
3) CCCCCCCCCCCCC/C=C\[C@@H](O)[C@@H](N)CO | inactive
4) CC[C@H](C)C(=O)O[C@H]1CCC=C2C=C[C@H](C)[C@H](CC[C@@H]3C[C@H](O)CC(=O)O3)[C@H]21 | inactive

// each listed molecule needs a value for outcome
1. N#C/C(=C\c1ccc(O)c(O)c1)C(=O)Nc1ccccc1
2. O=C(O)[C@H]1CN(CCCP(=O)(O)O)CCN1
3. COc1cc2c(cc1C(F)(F)F)N(C(=O)Nc1cc(F)cc(-c3cccnc3)c1)CC2

result:
1. inactive
2. inactive
3. inactive
